The values you see were collected from patent US9834551B2.

# targetSystem: JAK3 (Homo sapiens (Human), UniProt P52333)
# Sequence (P52333 whole entry): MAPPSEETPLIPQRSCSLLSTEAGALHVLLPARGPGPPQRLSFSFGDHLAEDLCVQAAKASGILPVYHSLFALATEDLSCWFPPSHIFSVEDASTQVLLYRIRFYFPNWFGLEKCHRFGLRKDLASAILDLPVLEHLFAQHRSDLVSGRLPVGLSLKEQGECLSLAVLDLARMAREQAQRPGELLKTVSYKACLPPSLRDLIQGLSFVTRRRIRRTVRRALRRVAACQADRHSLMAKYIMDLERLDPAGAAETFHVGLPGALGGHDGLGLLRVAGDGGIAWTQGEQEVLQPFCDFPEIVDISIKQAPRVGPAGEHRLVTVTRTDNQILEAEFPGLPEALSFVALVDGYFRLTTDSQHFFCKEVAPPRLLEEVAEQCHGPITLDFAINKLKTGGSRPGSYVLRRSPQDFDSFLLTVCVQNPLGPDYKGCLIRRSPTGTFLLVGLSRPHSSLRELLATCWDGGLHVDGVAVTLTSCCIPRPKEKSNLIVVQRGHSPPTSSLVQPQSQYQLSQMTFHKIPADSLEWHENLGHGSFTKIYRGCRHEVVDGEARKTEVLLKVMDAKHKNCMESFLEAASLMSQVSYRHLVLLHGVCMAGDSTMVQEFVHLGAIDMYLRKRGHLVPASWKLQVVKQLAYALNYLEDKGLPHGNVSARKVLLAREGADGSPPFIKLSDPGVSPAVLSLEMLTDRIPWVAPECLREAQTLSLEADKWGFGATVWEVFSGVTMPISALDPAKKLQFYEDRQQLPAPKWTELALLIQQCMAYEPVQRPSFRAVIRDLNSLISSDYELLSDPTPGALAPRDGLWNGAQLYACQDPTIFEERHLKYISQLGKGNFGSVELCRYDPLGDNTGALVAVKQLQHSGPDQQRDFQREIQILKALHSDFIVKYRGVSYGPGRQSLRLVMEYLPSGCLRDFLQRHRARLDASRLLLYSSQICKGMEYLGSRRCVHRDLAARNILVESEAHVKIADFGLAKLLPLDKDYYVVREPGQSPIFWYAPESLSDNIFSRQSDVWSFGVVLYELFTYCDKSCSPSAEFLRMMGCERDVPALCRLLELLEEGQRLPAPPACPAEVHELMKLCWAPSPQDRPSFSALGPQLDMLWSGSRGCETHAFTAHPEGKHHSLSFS
pIC50: −log10 of the molar value.
measuredParameter: pIC50

Item under review: CCC#CC(=O)Nc1cc(-c2cnc3[nH]cc(C)c3c2)ccc1F . Reported pIC50?
> 7.00
